Entry source: ChEMBL document CHEMBL1201861

IC50 for assorted compounds
System: AGS;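 also: growth inhibition of AGS cells, determined with a cell viability assay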
ASSAY_COMMENT: cells
Format: functional, cell-based, Homo sapiens
CONDITION_LABEL: Homo sapiens, AGS
Description: SANGER: Inhibition of human AGS cell growth in a cell viability assay.

[
  {
    "SMILES_REPRESENTATION": "C=C(c1ccc(C(=O)O)cc1)c1cc2c(cc1C)C(C)(C)CCC2(C)C",
    "IC50": "> 8000 nM"
  },
  {
    "SMILES_REPRESENTATION": "Cn1cnc2c(F)c(Nc3ccc(Br)cc3Cl)c(C(=O)NOCCO)cc21",
    "IC50": "1120 nM"
  },
  {
    "SMILES_REPRESENTATION": "Cc1cn(-c2cc(NC(=O)c3ccc(C)c(Nc4nccc(-c5cccnc5)n4)c3)cc(C(F)(F)F)c2)cn1",
    "IC50": "> 2000 nM"
  },
  {
    "SMILES_REPRESENTATION": "CC1(C)CNc2cc(NC(=O)c3cccnc3NCc3ccncc3)ccc21",
    "IC50": "> 2000 nM"
  }
]
